Data provenance: PubChem BioAssay (NCI)

The following molecules are listed with their measured TGI values.
Test system: RPMI-8226 leukemia
Assay: NCI tumour cell line growth inhibition, 48 h
measuredQuantity: TGI

molecule=CN(C)Cc1cc(C(=O)/C=C/c2ccc([N+](=O)[O-])cc2)cc(CN(C)C)c1O measuredquantity=TGI result="6.98 µM"
molecule=O=C(Nc1ncc(Cc2cccc(C(F)(F)F)c2)s1)c1ccc2c(c1)OCCO2 measuredquantity=TGI result="> 100 µM"
molecule="CC1OC(O[C@H]2C3C=CO[C@@H](OC4OC(CO)C(O)C(O)C4O)C3[C@@]3(COC(=O)/C=C/c4ccccc4)O[C@@H]23)C(O)C(O)C1O (stereo partly specified)" measuredquantity=TGI result="> 100 µM"
molecule=C[N+](C)(C)CC(=O)N/N=C(/Cc1cc(=O)oc2cc(O)ccc12)C(=O)Nc1ccc(Cl)cc1 measuredquantity=TGI result="> 100 µM"
molecule=COc1ccc(CNc2c3ccccc3nc3ccccc23)cc1F measuredquantity=TGI result="7.25 µM"
molecule=Cc1ccsc1/C=N/Nc1cnccn1 measuredquantity=TGI result="> 100 µM"
molecule=Cc1nc2ccccc2c(-n2cccn2)c1CCn1cccn1 measuredquantity=TGI result="> 100 µM"
molecule=O=Cc1cc2c(cc1-c1cc3c(cc1C=O)OCO3)OCO2 measuredquantity=TGI result="> 100 µM"
molecule=N#Cc1sc2c(c1OC(=O)c1ccc(C(F)(F)F)cc1)c(=O)n(-c1ccccc1)c(=S)n2-c1ccccc1 measuredquantity=TGI result="45.9 µM"
molecule=O=c1[nH]c(O)c(C=Nc2ccc(-c3nc4ccccc4o3)cc2)c(=O)[nH]1 measuredquantity=TGI result="> 100 µM"
molecule=CCCCCCCCSC1=C(Cl)C(=O)C(OC)=C(OC)C1=O measuredquantity=TGI result="> 100 µM"
molecule=CCOC(=O)Nc1c(C)nc2ccccn12 measuredquantity=TGI result="> 100 µM"
molecule="[N-]=[N+]=NC1(c2ccccc2)C(=O)c2cccc3c2N(CCC3)C1=O (stereo unspecified)" measuredquantity=TGI result="> 100 µM"
molecule="O/N=C1\\CCCCC1C(NO)c1ccccc1 (stereo unspecified)" measuredquantity=TGI result="> 100 µM"
molecule=CCOc1ccc(OCC(=O)O)c2c1CCCC2=O measuredquantity=TGI result="> 100 µM"
molecule=CCCCOCCOC1=C(Cl)C(=O)c2c(O)ccc(O)c2C1=O measuredquantity=TGI result="0.806 µM"
molecule=COc1c2occc2c(N)c2ccc(=O)oc12 measuredquantity=TGI result="> 100 µM"
molecule="C[C@@H]1CCC2[C@@H](C)[C@@H](O[C@H]3O[C@@H]4O[C@@]5(C)CCC6[C@H](C)CCC([C@H]3C)[C@]64OO5)O[C@@H]3O[C@@]4(C)CCC1[C@@]23OO4 (stereo partly specified)" measuredquantity=TGI result="> 7.26 µM"
molecule="O=C1NC(O)CCN1C1OC(CO)C(O)C1O (stereo unspecified)" measuredquantity=TGI result="> 250 µM"
molecule="O=c1onc2n1-c1cc(Cl)ccc1C(=S)N1CSCC21 (stereo unspecified)" measuredquantity=TGI result="> 100 µM"
molecule="CC(C)N1CCN(c2ccc(OCC3COC(Cn4cncn4)(c4ccc(Cl)cc4Cl)O3)cc2)CC1 (stereo unspecified)" measuredquantity=TGI result="29.7 µM"
